# assay procedure: NCI Yeast Anticancer Drug Screen. Data for the mlh1 strain (AID 171);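 further: 0% = growth of vehicle-treated control cultures of the same strain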
# condition parameters: S. cerevisiae mlh1 strain growth inhibition; at 3.7 µM; stronger effect = higher value
About 79,000 compounds went through this panel and 15% of them were active in at least one assay; those are over-represented in the sample as a whole.
measure: growth inhibition (%)
// units = %; emit number, no label

{"compound": "NCCc1ccc(OCc2ccccc2)c(OCc2ccccc2)c1", "observed measurement": -12}
{"compound": "COC1C(O)C(C)OC(OC2C(Oc3cccc4c(O)c5c(=O)oc6ccc(C)c7c(=O)oc(c34)c5c67)OC(C)C(O)C2O)C1O (stereo not given)", "observed measurement": 6}
{"compound": "COc1cccc2c1C(=O)c1c(O)c3c(c(O)c1C2=O)C[C@@](O)(C(C)=O)C[C@@H]3OC1CC(N)C(OC2CC(O)C(O)C(C)O2)C(C)O1 (stereo not given in full)", "observed measurement": -15}
{"compound": "C/C(=N\\N=C(N)N)C(CN1CCOCC1)C(c1ccccc1)c1c(O)c2ccccc2oc1=O (stereo not given)", "observed measurement": -8}

Now take the following compound into account.
Item COC(=O)C1c2cc3c(c(O)c2C(O)CC1(C)O)C(=O)c1c(O)cc2c(c1C3=O)OC1OC2(C)C(O)C(N(C)C)C1O (stereo not given) has what recorded growth inhibition?
18

====

# assay procedure: NCI Yeast Anticancer Drug Screen. Data for the sgs1 mgt1 strain (AID 161);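 further: 0% = growth of cultures given vehicle only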
# condition parameters: S. cerevisiae sgs1 mgt1 strain, at 5.0 µM (retest, dose inferred, filed as 0.5), stronger effect = higher value
About 79,000 compounds went through this panel and 15% of them were active in at least one assay; those are over-represented in the sample as a whole.
Measured growth inhibition, listed per entry for reference.
Just the number in %, nothing appended.

{"compound": "C[N+](C)(C)CC1CCC(C[N+](C)(C)C)C1=O (configuration not stated)", "observed measurement": 0}
{"compound": "CC(C)(c1ccccc1)c1ccc(O)cc1", "observed measurement": -7}
{"compound": "O=Cc1ccc(C(F)(F)F)cc1.[C-]#[O+].[C-]#[O+].[C-]#[O+].[Cr]", "observed measurement": -18}
{"compound": "CC(C)COP(=O)(OCC(C)C)C(=O)Nc1ccc(Cl)cc1", "observed measurement": 11}
{"compound": "c1ccncc1", "observed measurement": -4}

So what's the measured growth inhibition for this one? `Cn1cnc(N)c1C(=N)[Se]`
-61

Requested field: growth inhibition. Item: `CSCCl`
4

Recorded growth inhibition for C=C(CC(=O)O)C(=O)O (tested in a mixture with another compound) , please?
-1

====

# assay procedure: NCI Yeast Anticancer Drug Screen. Data for the sgs1 mgt1 strain (AID 161);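 further: 0% = growth of cultures given vehicle only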
# condition parameters: S. cerevisiae sgs1 mgt1 strain, at 5.0 µM (retest, dose inferred, filed as 0.5)
About 79,000 compounds went through this panel and 15% of them were active in at least one assay; those are over-represented in the sample as a whole. Active and inactive are the calls of the source. Rule as the data show it: active = growth inhibition above about 70%; inactive = the rest.
Please state which outcome applies, choosing from active, inactive

Sample answers from the record:
{"compound structure string": "N#CC(C#N)=Cc1cccc([N+](=O)[O-])c1", "discrete label": "inactive"}
{"compound structure string": "CC[N-]c1nnnn1CC.[Au+].c1ccc([PH+](c2ccccc2)c2ccccc2)cc1", "discrete label": "active"}
{"compound structure string": "[C-]#[O+].[C-]#[O+].[Ir].[O-]c1ccc2ccccc2c1N=Nc1ccccc1", "discrete label": "inactive"}
{"compound structure string": "[Cl][Sn]([c]1ccccc1)[c]1ccccc1", "discrete label": "inactive"}

Which result was noted for this compound in the test: `CCC[CH2][Sn]([F])([CH2]CCC)[O][Sn]([F])([CH2]CCC)[CH2]CCC`
inactive

FYI, the data here is from PubChem BioAssay (NCI).
